- assayName: Half life in Sprague-Dawley rat at 75 mg/kg,po and measured upto 24 hrs by LC-MS/MS analysis
- Assay type: ADME, organism-based
- cond: in vivo

itemSmiles: C=C1C(=O)O[C@H]2[C@H]1CC[C@@]1(C)[C@@H](CC[C@@]3(C)O[C@@H]23)C1(F)F
half-life / h: 8

----------
- assayName: Protein binding in rat plasma assessed as bound fraction
- Format: ADME, cell-free
- cond: read-out: PPB (converted)

itemSmiles: C=C1C(=O)O[C@H]2[C@H]1CC[C@@]1(C)[C@@H](CC[C@@]3(C)O[C@@H]23)C1(F)F
fraction unbound: 0.201

----------
- assayName: MRT(t) in Sprague-Dawley rat at 75 mg/kg,po and measured upto 24 hrs by LC-MS/MS analysis
- Type: ADME, organism-based
- cond: in vivo

itemSmiles: C=C1C(=O)O[C@H]2[C@H]1CC[C@@]1(C)[C@@H](CC[C@@]3(C)O[C@@H]23)C1(F)F
MRT last at 24 h / h: 12.4

----------
- assayName: Half life in Sprague-Dawley rat at 8 mg/kg,iv and measured upto 24 hrs by LC-MS/MS analysis
- Format: ADME, organism-based
- cond: in vivo
reportedMetric: half-life (h)

itemSmiles: C=C1C(=O)O[C@H]2[C@H]1CC[C@@]1(C)[C@@H](CC[C@@]3(C)O[C@@H]23)C1(F)F
reportedMetric: half-life
val: 2

----------
- assayName: Microsomal stability in rat liver microsomes assessed as half life
- Assay type: ADME, Microsome

itemSmiles: C=C1C(=O)O[C@H]2[C@H]1CC[C@@]1(C)[C@@H](CC[C@@]3(C)O[C@@H]23)C1(F)F
unitText: min
half-life: 12.6

----------
Catalogue of pEC50 readings, one per entry.
- systemUnderTest: Pyruvate kinase PKM (Homo sapiens)
- Sequence (P14618 whole entry): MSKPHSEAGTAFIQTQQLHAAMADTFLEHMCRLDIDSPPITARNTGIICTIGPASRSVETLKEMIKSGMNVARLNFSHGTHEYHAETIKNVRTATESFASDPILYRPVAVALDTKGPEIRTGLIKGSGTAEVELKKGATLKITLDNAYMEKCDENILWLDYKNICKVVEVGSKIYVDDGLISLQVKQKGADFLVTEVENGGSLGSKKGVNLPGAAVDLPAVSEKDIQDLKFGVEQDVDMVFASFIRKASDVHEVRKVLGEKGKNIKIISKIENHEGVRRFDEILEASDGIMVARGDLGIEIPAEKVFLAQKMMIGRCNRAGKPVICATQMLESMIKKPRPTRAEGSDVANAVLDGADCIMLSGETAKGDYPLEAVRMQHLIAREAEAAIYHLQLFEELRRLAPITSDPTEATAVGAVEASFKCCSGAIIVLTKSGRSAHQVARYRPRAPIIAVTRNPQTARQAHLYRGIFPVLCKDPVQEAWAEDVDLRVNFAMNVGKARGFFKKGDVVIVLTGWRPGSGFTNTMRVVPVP
- assayName: Activation of PKM2 (unknown origin) incubated for 30 mins
pEC50: −log10 of the molar value.

compound: C=C1C(=O)O[C@@H]2/C=C(\C)CC/C=C(\C)CC[C@@H]12 [COSTUNOLIDE]
pEC50: 5.82

compound: C=C1C(=O)O[C@H]2[C@H]1CC[C@@]1(C)[C@@H](CC[C@@]3(C)O[C@@H]23)C1(F)F
pEC50: 6.69

----------
- assayName: Tmax in Sprague-Dawley rat at 8 mg/kg,iv and measured upto 24 hrs by LC-MS/MS analysis
- Type: ADME, organism-based
- cond: in vivo

itemSmiles: C=C1C(=O)O[C@H]2[C@H]1CC[C@@]1(C)[C@@H](CC[C@@]3(C)O[C@@H]23)C1(F)F
Tmax: 4.98 min

----------
- assayName: Tmax in Sprague-Dawley rat at 75 mg/kg,po and measured upto 24 hrs by LC-MS/MS analysis
- Type: ADME, organism-based
- cond: in vivo

itemSmiles: C=C1C(=O)O[C@H]2[C@H]1CC[C@@]1(C)[C@@H](CC[C@@]3(C)O[C@@H]23)C1(F)F
Tmax / h: 6

----------
- assayName: Clearance in Sprague-Dawley rat at 8 mg/kg,iv and measured upto 24 hrs by LC-MS/MS analysis
- Assay type: ADME, organism-based
- cond: in vivo
reportedMetric: clearance (mL/min/kg)

itemSmiles: C=C1C(=O)O[C@H]2[C@H]1CC[C@@]1(C)[C@@H](CC[C@@]3(C)O[C@@H]23)C1(F)F
val: 103

----------
- assayName: Cmax in Sprague-Dawley rat at 8 mg/kg,iv and measured upto 24 hrs by LC-MS/MS analysis
- Format: ADME, organism-based
- Set-up: time < 24 hrs, dose 8 mg/kg, route iv
- cond: in vivo
reportedMetric: Cmax (ng/mL)

itemSmiles: C=C1C(=O)O[C@H]2[C@H]1CC[C@@]1(C)[C@@H](CC[C@@]3(C)O[C@@H]23)C1(F)F
unitText: ng/mL
val: 190

----------
- assayName: Microsomal stability in rat liver microsomes assessed as hepatic clearance
- Assay type: ADME, Microsome

itemSmiles: C=C1C(=O)O[C@H]2[C@H]1CC[C@@]1(C)[C@@H](CC[C@@]3(C)O[C@@H]23)C1(F)F
CLhep predicted, mL/min/kg: 43.1

----------
- assayName: Microsomal stability in rat liver microsomes assessed as intrinsic clearance
- Assay type: ADME, Microsome
- cond: read-out: CLH

itemSmiles: C=C1C(=O)O[C@H]2[C@H]1CC[C@@]1(C)[C@@H](CC[C@@]3(C)O[C@@H]23)C1(F)F
unitText: µL/min/mg
microsomal CLint: 110

----------
- assayName: AUCt in Sprague-Dawley rat at 75 mg/kg,po and measured upto 24 hrs by LC-MS/MS analysis
- Assay type: ADME, organism-based
- Set-up: time < 24 hrs, dose 75 mg/kg, route po
- cond: in vivo
reportedMetric: AUC(0-t) at 24 h (ng·h/mL)

itemSmiles: C=C1C(=O)O[C@H]2[C@H]1CC[C@@]1(C)[C@@H](CC[C@@]3(C)O[C@@H]23)C1(F)F
val: 322

----------
- assayName: Volume of distribution in Sprague-Dawley rat at 8 mg/kg,iv and measured upto 24 hrs by LC-MS/MS analysis
- Format: ADME, organism-based
- cond: in vivo

itemSmiles: C=C1C(=O)O[C@H]2[C@H]1CC[C@@]1(C)[C@@H](CC[C@@]3(C)O[C@@H]23)C1(F)F
Vd [L/kg]: 17.6

meta.source: ChEMBL document CHEMBL5338738
